Ki values, listed per item
- assayed-system: Adenosine receptor A3 (Homo sapiens, UniProt P0DMS8)
- Sequence (P0DMS8 whole entry): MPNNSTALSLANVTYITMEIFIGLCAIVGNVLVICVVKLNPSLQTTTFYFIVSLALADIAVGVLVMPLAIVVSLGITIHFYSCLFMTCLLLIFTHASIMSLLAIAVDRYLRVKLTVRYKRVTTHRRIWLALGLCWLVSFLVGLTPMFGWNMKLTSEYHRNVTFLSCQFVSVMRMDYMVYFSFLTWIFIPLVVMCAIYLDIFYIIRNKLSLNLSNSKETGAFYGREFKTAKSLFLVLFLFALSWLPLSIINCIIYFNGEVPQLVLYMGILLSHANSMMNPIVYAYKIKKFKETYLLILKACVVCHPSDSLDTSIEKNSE
- test-description: Displacement of I-AB-MECA from human recombinant adenosine A3 receptor expressed in CHO cells
Reply with just the number (in nM).

// below: answered compounds
compound="CNC(=O)[C@@]12C[C@@H]1[C@@H](n1cnc3c(NCc4cccc(Cl)c4)nc(C#CCCCCc4cn(CCCCCCNC5SCC6NC(=O)NC65)nn4)nc31)[C@H](O)[C@@H]2O (stereo partly specified)" measurement_kind=Ki numeric_result=285
compound=C#CCCCC#Cc1nc(NCc2cccc(Cl)c2)c2ncn([C@@H]3[C@H](O)[C@H](O)[C@]4(C(=O)NC)C[C@H]34)c2n1 measurement_kind=Ki numeric_result=23.6
compound=CNC(=O)[C@@]12C[C@@H]1[C@@H](n1cnc3c(NCc4cccc(Cl)c4)nc(C#CCCCCc4cn(CCCCCCNC(=O)c5ccc(-c6c7ccc(=N)c(S(=O)(=O)O)c-7oc7c(S(=O)(=O)O)c(N)ccc67)c(C(=O)O)c5)nn4)nc31)[C@H](O)[C@@H]2O measurement_kind=Ki numeric_result=416

*Q* What does the data say about its Ki? Entry: CNC(=O)[C@@]12C[C@@H]1[C@@H](n1cnc3c(NCc4cccc(Cl)c4)nc(C#CCCC(=O)NCCNC(=O)CCCCC4SCC5NC(=O)NC54)nc31)[C@H](O)[C@@H]2O (stereo partly specified)
*A* 36.4

*Q* I have this compound here, CNC(=O)[C@@]12C[C@@H]1[C@@H](n1cnc3c(NCc4cccc(Cl)c4)nc(C#CCCC(=O)NCCNC(=O)CCCCCNC(=O)CCCCC4SCC5NC(=O)NC54)nc31)[C@H](O)[C@@H]2O (stereo partly specified) , and I need its recorded Ki.
*A* 57.7

*Q* Which value of Ki has been reported for C#CCCCCC#Cc1nc(NCc2cccc(Cl)c2)c2ncn([C@H]3[C@H](O)[C@H](O)[C@]4(C(=O)NC)C[C@H]34)c2n1 in the records?
*A* 29.4

----------
- Species: Homo sapiens
- test-description: Selectivity ratio of Ki for human adenosine A2A receptor to Ki for human adenosine A3 receptor
Entries annotated with measured Ratio Ki

Reference set (3 entries):
compound_string=C#CCCCC#Cc1nc(NCc2cccc(Cl)c2)c2ncn([C@@H]3[C@H](O)[C@H](O)[C@]4(C(=O)NC)C[C@H]34)c2n1 result=300
compound_string=CNC(=O)[C@@]12C[C@@H]1[C@@H](n1cnc3c(NCc4cccc(Cl)c4)nc(C#CCCCCc4cn(CCNC(C)=O)nn4)nc31)[C@H](O)[C@@H]2O result=109
compound_string=C#CCCCCC#Cc1nc(NCc2cccc(Cl)c2)c2ncn([C@H]3[C@H](O)[C@H](O)[C@]4(C(=O)NC)C[C@H]34)c2n1 result=300

*Q* Please report the recorded Ratio Ki for CNC(=O)[C@@]12C[C@@H]1[C@@H](n1cnc3c(NCc4cccc(Cl)c4)nc(C#CCCCCc4cn(C56CC7CC(CC(C7)C5)C6)nn4)nc31)[C@H](O)[C@@H]2O .
*A* 500

----------
- assayed-system: Adenosine receptor A2a (Homo sapiens, UniProt P29274)
- Sequence (P29274 whole entry): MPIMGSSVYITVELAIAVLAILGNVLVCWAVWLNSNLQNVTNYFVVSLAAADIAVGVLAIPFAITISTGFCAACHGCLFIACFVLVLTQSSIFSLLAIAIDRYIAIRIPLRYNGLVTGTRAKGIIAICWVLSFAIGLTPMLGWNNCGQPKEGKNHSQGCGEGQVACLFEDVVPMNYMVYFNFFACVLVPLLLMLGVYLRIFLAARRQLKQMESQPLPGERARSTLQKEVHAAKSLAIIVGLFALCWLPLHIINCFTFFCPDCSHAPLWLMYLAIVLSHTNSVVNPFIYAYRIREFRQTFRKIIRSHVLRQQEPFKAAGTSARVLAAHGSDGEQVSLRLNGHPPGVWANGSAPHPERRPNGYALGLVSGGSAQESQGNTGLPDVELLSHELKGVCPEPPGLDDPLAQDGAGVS
- test-description: Displacement of [3H]CGS21680 from human recombinant adenosine A2A receptor expressed in HEK293 cells by liquid scintillation counting
measurement-kind: Ki (µM)
Write down the numeric answer in µM and omit the unit.

compound_string=CCN1\C(=C/C=C/C=C/C2=[N+](CCCCCC(=O)NCCNC(=O)CCC#Cc3nc(NCc4cccc(Cl)c4)c4ncn([C@H]5[C@H](O)[C@H](O)[C@]6(C(=O)NC)C[C@H]56)c4n3)c3ccc(S(=O)(=O)[O-])cc3C2(C)C)C(C)(C)c2cc(S(=O)(=O)O)ccc21 numeric_result=4.73
compound_string=C#CCCCCC#Cc1nc(NCc2cccc(Cl)c2)c2ncn([C@H]3[C@H](O)[C@H](O)[C@]4(C(=O)NC)C[C@H]34)c2n1 numeric_result=7.04

Moving on to another compound below.
*Q* If you can, please state the reported Ki value of C#CCCCC#Cc1nc(NCc2cccc(Cl)c2)c2ncn([C@@H]3[C@H](O)[C@H](O)[C@]4(C(=O)NC)C[C@H]34)c2n1 .
*A* 4.33

----------
- assayed-system: Adenosine receptor A1 (Homo sapiens) (UniProt P30542)
- Sequence (whole entry): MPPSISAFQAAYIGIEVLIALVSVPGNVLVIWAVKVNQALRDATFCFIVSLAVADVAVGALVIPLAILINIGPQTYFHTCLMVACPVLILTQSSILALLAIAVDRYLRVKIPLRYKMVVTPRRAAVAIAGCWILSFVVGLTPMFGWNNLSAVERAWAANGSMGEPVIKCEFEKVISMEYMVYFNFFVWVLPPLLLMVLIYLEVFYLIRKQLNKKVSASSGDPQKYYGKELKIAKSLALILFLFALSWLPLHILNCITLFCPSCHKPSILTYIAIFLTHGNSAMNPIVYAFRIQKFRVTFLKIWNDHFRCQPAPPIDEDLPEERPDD
- test-description: Displacement of [3H]NECA from human recombinant adenosine A1 receptor expressed in CHO cells at 10 uM by liquid scintillation counting
- Assay type: cell-based
measurement-kind: inhibition (%)
Note: unit % is implicit; provide only the numeric part.

Sample answers from the record:
compound_string=CNC(=O)[C@@]12C[C@@H]1[C@@H](n1cnc3c(NCc4cccc(Cl)c4)nc(C#CCCCCc4cn(C56CC7CC(CC(C7)C5)C6)nn4)nc31)[C@H](O)[C@@H]2O assayed_system="Adenosine receptor A1 (Homo sapiens) (UniProt P30542)" measurement_kind=inhibition numeric_result=22
compound_string=CNC(=O)[C@@]12C[C@@H]1[C@@H](n1cnc3c(NCc4cccc(Cl)c4)nc(C#CCCCCc4cn(-c5ccc(C(=O)O)cc5)nn4)nc31)[C@H](O)[C@@H]2O assayed_system="Adenosine receptor A1 (Homo sapiens) (UniProt P30542)" measurement_kind=inhibition numeric_result=0

Next, consider the following compound.
*Q* Item CNC(=O)[C@@]12C[C@@H]1[C@@H](n1cnc3c(NCc4cccc(Cl)c4)nc(C#CCCCCc4cn(Cc5ccc(-n6sccc6=O)cc5)nn4)nc31)[C@H](O)[C@@H]2O with Adenosine receptor A1 (Homo sapiens) (UniProt P30542) - inhibition?
*A* 15
